Cited source for all entries: the Immune Epitope Database (IEDB)

molecular target: HLA-B*07:02; assay: IEDB peptide-MHC binding, purified MHC/competitive/fluorescence; bounds were set here for any values at or beyond the usual limits of such assays; settings: source organism: H1N1 subtype
QUANTITY KIND: IC50

LPFDRPTIM 7910 nM
LPFEKTTIM 1190 nM
LPFGKTTIM 881 nM

Next up:
Bench note: what IC50 did `LPFDKITIM` show? 4810 nM

---

target: HLA-B*07:02; assay: IEDB peptide-MHC binding, purified MHC/competitive/fluorescence; bounds were set here for any values at or beyond the usual limits of such assays; conditions: source organism: H3N2 subtype
QUANTITY KIND: IC50 (µM)
Could you give me the number in µM? Just the number is fine.

Worked examples follow.
LPFDKQTIM 46.5
LPFERATII 1.18
LPFEKSIVM 0.494

Proceed to the following item.
# value lookup — system HLA-B*07:02, readout IC50, item `LPFDKPTIM` 0.335

---

biological target: HLA-B*07:02; test: IEDB peptide-MHC binding, purified MHC/competitive/fluorescence; bounds were set here for any values at or beyond the usual limits of such assays; conditions: source organism: H1N1 subtype Influenza A/Oklahoma/7485/01
QUANTITY KIND: IC50 (nM)
Hi! Could you send only the number? It should be in nM, unit omitted.

Fill blank: measured IC50 of the sequence `LPFDKTTIM` is ____. 192
